Origin of values: paper PMC10247784

Biological target: mouse Tas2r144 (Mus musculus)
Construct: expressed in transfected cells; host or cells: HEK293T-Gα16gust44
Sequence (Q7TQB8 whole entry): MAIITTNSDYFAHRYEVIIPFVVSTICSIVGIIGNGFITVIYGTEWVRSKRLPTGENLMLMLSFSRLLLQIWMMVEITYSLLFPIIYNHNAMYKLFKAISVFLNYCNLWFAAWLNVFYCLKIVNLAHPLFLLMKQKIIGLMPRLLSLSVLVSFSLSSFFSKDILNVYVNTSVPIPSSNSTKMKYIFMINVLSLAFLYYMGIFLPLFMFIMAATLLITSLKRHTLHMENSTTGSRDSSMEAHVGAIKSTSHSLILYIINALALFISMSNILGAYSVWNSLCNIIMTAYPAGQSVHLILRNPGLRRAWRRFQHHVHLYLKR
Experiment: Calcium imaging assay (FLIPR), HEK293T-Gα16gust44 cells transfected with mouse Tas2r144
Assay type: cell-based
Settings: Time 104.781 s
outcome measure: RLU (RLU)

compound: C[C@H](CCC(=O)NCC(=O)O)[C@H]1CC[C@H]2[C@@H]3[C@H](O)C[C@@H]4C[C@H](O)CC[C@]4(C)[C@H]3C[C@H](O)[C@]12C [Glycocholic Acid, glycocholic acid]
reading: 369.437

compound: C[C@H](CCC(=O)O)[C@H]1CC[C@H]2[C@@H]3[C@H](O)C[C@@H]4C[C@H](O)CC[C@]4(C)[C@H]3C[C@H](O)[C@]12C [Cholic Acid, cholic acid]
reading: 492.298

compound: C[C@H](CCC(=O)NCCS(=O)(=O)O)[C@H]1CC[C@H]2[C@@H]3CC[C@@H]4C[C@H](O)CC[C@]4(C)[C@H]3CC[C@]12C [Taurolithocholic Acid, taurolithocholic acid]
reading: 393.124

compound: C[C@H](CCC(=O)NCCS(=O)(=O)O)[C@H]1CC[C@H]2[C@@H]3[C@H](O)C[C@@H]4C[C@H](O)CC[C@]4(C)[C@H]3C[C@H](O)[C@]12C [Taurocholic Acid, taurocholic acid]
reading: 532.417
